biological target: wild-type Choristoneura fumiferana EcR (D, E and F domains) (Choristoneura fumiferana, UniProt O77240); assay type: cell-based; conditions: R; WT-CtEcR, 3T3 Cells; relative to GS-E ligand
Where RMFI (relative maximum fold induction) equals or exceeds 0.5, the correct label is yes; where it does not, the label is no.

Example results:
| smiles code | label |
| --- | --- |
| CCC[C@@H](N(NC(=O)c1c(Cl)cccc1Cl)C(=O)c1cc(C)cc(C)c1)C(C)(C)C | yes |
| CCC[C@@H](N(NC(=O)c1ccc(C)cc1)C(=O)c1cc(C)cc(C)c1)C(C)(C)C | yes |
| CCC[C@@H](N(NC(=O)c1ccccc1C)C(=O)c1cc(C)cc(C)c1)C(C)(C)C | yes |
| CCC[C@@H](N(NC(=O)c1ccc(Cl)nc1)C(=O)c1cc(C)cc(C)c1)C(C)(C)C | no |
| CCC[C@@H](N(NC(=O)c1ccccc1F)C(=O)c1cc(C)cc(C)c1)C(C)(C)C | yes |

Ask | Could you please find out whether `CCC[C@@H](N(NC(=O)c1cccc(OC)c1C)C(=O)c1cc(OC)c(C)c(OC)c1)C(C)(C)C` has RMFI (relative maximum fold induction) that meets 0.5 or exceeds it?
Reply | yes

Ask | Is it the case that `CCC[C@@H](N(NC(=O)c1cc(C)oc1C)C(=O)c1cc(C)cc(C)c1)C(C)(C)C` has RMFI (relative maximum fold induction) reaching or exceeding 0.5?
Reply | yes

Ask | Could you please find out whether `CCC[C@@H](N(NC(=O)c1ccc(CC)cc1)C(=O)c1cc(C)cc(C)c1)C(C)(C)C` has RMFI (relative maximum fold induction) that meets 0.5 or exceeds it?
Reply | yes

Ask | Record `CCC[C@@H](N(NC(=O)c1ccc2c(c1C)OCCO2)C(=O)c1cc(C)cc(C)c1)C(C)(C)C` ; criterion: RMFI (relative maximum fold induction) no lower than 0.5. Met?
Reply | yes

Ask | Does the reported RMFI (relative maximum fold induction) for `CCC[C@@H](N(NC(=O)c1cccc2ccccc12)C(=O)c1cc(C)cc(C)c1)C(C)(C)C` fall at or above the 0.5 mark?
Reply | yes

Ask | Tell me whether RMFI (relative maximum fold induction) is at least 0.5 here: `CCC[C@@H](N(NC(=O)c1c(F)cccc1F)C(=O)c1cc(C)cc(C)c1)C(C)(C)C`
Reply | yes

Ask | Please check the record `CCC[C@@H](N(NC(=O)c1cccc(Cl)c1)C(=O)c1cc(C)cc(C)c1)C(C)(C)C` and state if its RMFI (relative maximum fold induction) is at or above 0.5.
Reply | yes

Ask | Hello, I need to know if `CCC[C@@H](N(NC(=O)c1ccc2ccccc2c1)C(=O)c1cc(C)cc(C)c1)C(C)(C)C` has measured RMFI (relative maximum fold induction) not below 0.5. Thanks!
Reply | no

Ask | Can `CCC[C@@H](N(NC(=O)c1cc(F)cc(F)c1)C(=O)c1cc(C)cc(C)c1)C(C)(C)C` be said to have RMFI (relative maximum fold induction) at or above 0.5?
Reply | yes

Ask | Textbook exercise: given the entry `CCC[C@@H](N(NC(=O)c1cc(OC)c(C)c(OC)c1)C(=O)c1cc(C)cc(C)c1)C(C)(C)C` , state whether its RMFI (relative maximum fold induction) is greater than or equal to 0.5.
Reply | no

These measurements were taken from patent US20200270225A1.
